Can you tell me E1/2 for the items I'm about to list?
- assay.overview: Reduction potential E1/2 of the quinone nucleus of RIND compounds (Table I)
- Assay type: physicochemical
- condition.parameters: quinone nucleus with H in place of the releasing group; aqueous emulsion, DMF, nonionic surfactant, phosphate buffer pH 7; standard calomel electrode

compound: CN(CC1=C(c2ccccc2)C(=O)C2=C(C1=O)C1C=CC2C1)C(=O)Oc1ccc(N=Nc2ccc([N+](=O)[O-])cc2S(C)(=O)=O)c2c(NS(=O)(=O)c3cccc(S(N)(=O)=O)c3)cccc12 (centres unmarked) [XIX]
E1/2: +242 mV

compound: CN(CC1=C(c2ccc([N+](=O)[O-])cc2)C(=O)C2=C(CCCC2)C1=O)C(=O)Oc1ccc(N=Nc2ccc([N+](=O)[O-])cc2S(C)(=O)=O)c2c(NS(=O)(=O)c3cccc(S(N)(=O)=O)c3)cccc12 [VII]
E1/2: +236 mV

compound: CCCCCCCCCCCCC1CC2=C(C1)C(=O)C(c1ccccc1)=C(CN(C)C(=O)Oc1ccc(N=Nc3ccc([N+](=O)[O-])cc3S(C)(=O)=O)c3c(NS(=O)(=O)c4cccc(S(N)(=O)=O)c4)cccc13)C2=O (centres unmarked) [XXV]
E1/2: +222 mV

compound: CN(CC1=C(c2cccc([N+](=O)[O-])c2)C(=O)C2=C(CCCC2)C1=O)C(=O)Oc1ccc2c3c(cccc13)C(=O)C=C2 [XXXII]
E1/2: +214 mV

Query compound follows.
Tell me the measured E1/2 of COc1cccc(C2=C(CN(C)C(=O)Oc3ccc(N=Nc4ccc([N+](=O)[O-])cc4S(C)(=O)=O)c4c(NS(=O)(=O)c5cccc(S(N)(=O)=O)c5)cccc34)C(=O)C3=C(CCCC3)C2=O)c1 [X] , please. +154 mV

----------
- assay.overview: Reduction potential E1/2 of the quinone nucleus of RIND compounds (Table I)
- Type: physicochemical
- condition.parameters: quinone nucleus with H in place of the releasing group; aqueous emulsion, DMF, nonionic surfactant, phosphate buffer pH 7; standard calomel electrode
Can you tell me E1/2 for the items I'm about to list?

Some solved cases for reference:
smiles.record: CC(C)NS(=O)(=O)c1ccc(C2=C(CN(C)C(=O)Oc3ccc(N=Nc4ccc([N+](=O)[O-])cc4S(C)(=O)=O)c4c(NS(=O)(=O)c5cccc(S(N)(=O)=O)c5)cccc34)C(=O)C3=C(CCCC3)C2=O)cc1
value.measured: +212 mV
--
smiles.record: Cc1cc(=O)oc2cc(OC(=O)N(C)CC3=C(c4cccc([N+](=O)[O-])c4)C(=O)C4=C(CCCC4)C3=O)ccc12
value.measured: +214 mV
--
smiles.record: CN(CC1=C(c2ccc(C#N)cc2)C(=O)C2=C(CCCC2)C1=O)C(=O)Oc1ccc(N=Nc2ccc([N+](=O)[O-])cc2S(C)(=O)=O)c2c(NS(=O)(=O)c3cccc(S(N)(=O)=O)c3)cccc12
value.measured: +220 mV
--
smiles.record: CN(CC1=C(c2ccc(C#N)cc2)C(=O)C2=C(CCCC2)C1=O)C(=O)Oc1ccc2c3c(cccc13)C(=O)C=C2
value.measured: +220 mV

Query compound follows.
Tell me the measured E1/2 of CN(CC1=CC(=O)C2=C(CCCC2)C1=O)C(=O)Oc1ccc(N=Nc2ccc([N+](=O)[O-])cc2S(C)(=O)=O)c2c(NS(=O)(=O)c3cccc(S(N)(=O)=O)c3)cccc12 , please. +213 mV

----------
- assay.overview: Reduction potential E1/2 of the quinone nucleus of RIND compounds (Table I)
- Type: physicochemical
- condition.parameters: quinone nucleus with H in place of the releasing group; denoted *: measured in acetonitrile, saturated calomel electrode
property.label: E1/2 (mV)
Answers are plain numbers, in mV.

Some solved cases for reference:
compound: CCCCCCCCCCNS(=O)(=O)c1ccc(C(C)C2=C(CN(C)C(=O)Oc3ccc4c(C)cc(=O)oc4c3)C(=O)C(C(C)c3ccc(S(=O)(=O)NCCCCCCCCCC)cc3)=C(CN(C)C(=O)Oc3ccc4c(C)cc(=O)oc4c3)C2=O)cc1 (stereo not shown) [XXII]
unit.annotation: mV
value.measured: -528

compound: CCCCCCCCCCNS(=O)(=O)c1ccc(C(C)C2=C(CN(C)C(=O)Oc3ccc(N=Nc4ccc([N+](=O)[O-])cc4S(C)(=O)=O)c4c(NS(=O)(=O)c5cccc(S(N)(=O)=O)c5)cccc34)C(=O)C(C(C)c3ccc(S(=O)(=O)NCCCCCCCCCC)cc3)=C(CN(C)C(=O)Oc3ccc(N=Nc4ccc([N+](=O)[O-])cc4S(C)(=O)=O)c4c(NS(=O)(=O)c5cccc(S(N)(=O)=O)c5)cccc34)C2=O)cc1 (stereo not shown) [I]
unit.annotation: mV
value.measured: -528

compound: CCCCCCCCCCNS(=O)(=O)c1ccc(C(C)C2=C(CN(C)C(=O)Oc3ccc(N=Nc4cccc(S(N)(=O)=O)c4)c4c(NS(C)(=O)=O)cccc34)C(=O)C(C(C)c3ccc(S(=O)(=O)NCCCCCCCCCC)cc3)=C(CN(C)C(=O)Oc3ccc(N=Nc4cccc(S(N)(=O)=O)c4)c4c(NS(C)(=O)=O)cccc34)C2=O)cc1 (stereo not shown) [XXI]
unit.annotation: mV
value.measured: -528

Query compound follows.
Tell me the measured E1/2 of CN(CC1=C(c2ccccc2)C(=O)C(CN(C)C(=O)Oc2ccc(N=Nc3ccc([N+](=O)[O-])cc3S(C)(=O)=O)c3c(NS(=O)(=O)c4cccc(S(N)(=O)=O)c4)cccc23)=C(c2ccccc2)C1=O)C(=O)Oc1ccc(N=Nc2ccc([N+](=O)[O-])cc2S(C)(=O)=O)c2c(NS(=O)(=O)c3cccc(S(N)(=O)=O)c3)cccc12 [IV] , please. -460

The origin of these recorded values is patent US4888287A.
